Target: T1, Mota Fab
T1 construct: also called Motavizumab Fab; Fab portion of Motavizumab
Test: SPR (Biacore 2000); scaffold coupled to chip, Motavizumab as analyte
Please mark Yes if the recorded koff is equal to or greater than 0.0007 s⁻¹, and No if it falls below.

Examples with answers:
FFL_002 (designed binder, Purified on Ni++ resin; no tag is stated for this construct) GSLSDVRKDVEKRIDKALEAFKNKMDKEKAAFRKDPPSEERRKDKKKEFREEREQVRKAIRNVLSEALSKINDLPITNDKKKLVSNDVIKKVAEMKKKVELEVADVEKKVTQGSW	Yes
FFL_001 (designed binder, monomeric) GSRSDMRKDAERRFDKFVEAAKNKFDKFKAALRKGDIKEERRKDMKKLARKEAEQARRAVRNRLSELLSKINDMPITNDQKKLMSNDVLKFAAEAEKKIEALAADAEDKFTQGSW	No
FFL_004 (designed binder, Purified on Ni++ resin; no tag is stated for this construct) GSMSDARKDLEERLDKLLEAAKNKMDKFKAAMRKRGQREERKKDWAKIVRDEFEQFRKAVRNFLSEALSKINDYPITNDDKKLTSNDTKKFAAEVEKKLEAFKADVEEAATQ	Yes
FFL_007 (designed binder) GSLSDIRKDAERRFDKLVEAVKNKLDKMKAALRKEGQQEERMKDLMKFMRKEVEQLRKAMRNFLSEALSKINDMPITNDDKKLISNDLKKYDAIAEKKLEAMKADVERMATQGSWLEHHHHHH	No

# ---- query binder ----
*Q* Given the entry FFL_005 (designed binder) GSMSDIRKDLEERFDKLVEALKNKVDKMKAAFRKDQFHEERMKDWFKDLRKEVEQMRRAVRNYASEALSKINDLPITNDDKKLASNDVLKLVAEVWKKLEAILADVEAWFTQLEHHHHHH , answer whether its koff meets or surpasses 0.0007 s⁻¹.
*A* No
